# Experimental details: Plasma pharmacokinetics after a single dose of liquid or solid oat product (compartmental PK model)
# Type: in vivo, humans
# Condition info: liquid, Table S1 compartmental model
# Method: A non-blinded, randomized two-way crossover study with two different oat products (solid or liquid) was designed to investigate the AVA and AVE PK after a single dose and after repeated dosing at three different doses, for respective food (Fig. 2). […] In all cases the time of oat intake was recorded in a food journal. […] Compliance was assessed based on information provided in a compliance journal during the study weeks as well as through 2-day food records. […]
Listed below: ke, population estimate (RSE%) values for each entry.

Compound	ke, population estimate (RSE%)
CC1OC(OC2C(OC3CCC4(C)C(=CCC5C4CCC4(C)C5CC5OC6(CCC(C)(COC7OC(CO)C(O)C(O)C7O)O6)C(C)C54)C3)OC(CO)C(OC3OC(CO)C(O)C(OC4OC(CO)C(O)C(O)C4O)C3O)C2O)C(O)C(O)C1O (stereo not drawn) [AVE B, Avenacoside B]	0.27 (3) 1/h
CC1OC(OC2C(OC3CCC4(C)C(=CCC5C4CCC4(C)C5CC5OC6(CCC(C)(COC7OC(CO)C(O)C(O)C7O)O6)C(C)C54)C3)OC(CO)C(OC3OC(CO)C(O)C(O)C3O)C2O)C(O)C(O)C1O (stereo not drawn) [AVE A, Avenacoside A]	0.21 (10) 1/h
O=C(/C=C/C=C/c1ccc(O)cc1)Nc1ccc(O)cc1C(=O)O [AVA 2pd]	0.30 (13) 1/h
